# study.target: L-galactonic acid dehydratase (Trichoderma reesei, UniProt Q0QWS4)
# Construct: made in house; host or cells: Saccharomyces cerevisiae strain H3350 (DSM 17214), crude yeast extract
# Sequence (Q0QWS4 1-450): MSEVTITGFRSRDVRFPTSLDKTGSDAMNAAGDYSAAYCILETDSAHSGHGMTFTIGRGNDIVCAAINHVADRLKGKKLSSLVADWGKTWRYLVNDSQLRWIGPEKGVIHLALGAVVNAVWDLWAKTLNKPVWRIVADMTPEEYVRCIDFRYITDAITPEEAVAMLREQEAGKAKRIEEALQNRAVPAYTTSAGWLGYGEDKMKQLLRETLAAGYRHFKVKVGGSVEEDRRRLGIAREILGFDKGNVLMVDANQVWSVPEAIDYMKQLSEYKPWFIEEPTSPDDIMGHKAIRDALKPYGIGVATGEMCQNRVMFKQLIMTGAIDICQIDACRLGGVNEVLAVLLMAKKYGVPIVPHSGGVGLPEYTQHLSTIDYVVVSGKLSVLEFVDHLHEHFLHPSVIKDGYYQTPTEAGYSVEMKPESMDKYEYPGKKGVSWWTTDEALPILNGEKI
# protocol: specificity test of L-galactonic acid dehydratase in yeast extract of strain H3350, formation of reducing sugars
# Assay type: biochemical, Hypocrea jecorina (Trichoderma reesei)
# condition.info: yeast extract of S. cerevisiae strain H3350 expressing lgd1; formation of reducing sugars followed
recorded.metric: enzyme activity with the sugar acid as substrate

| smiles.structure | measured.value |
| --- | --- |
| O=C(O)[C@@H](O)[C@H](O)[C@H](O)CO | Activity was observed |
| O=C(O)[C@@H](O)[C@H](O)[C@H](O)[C@@H](O)CO | Activity was observed |
